Catalogue of pIC50 readings, one per entry.
system_under_test: Recombinant human renin (Homo sapiens, UniProt P00797)
Construct: isolate the active form (residues 67-406); made in house; host or cells: FreeStyle 293-F cells, transient expression of pcDNA3.1(+)/hREN
Sequence (P00797 67-406): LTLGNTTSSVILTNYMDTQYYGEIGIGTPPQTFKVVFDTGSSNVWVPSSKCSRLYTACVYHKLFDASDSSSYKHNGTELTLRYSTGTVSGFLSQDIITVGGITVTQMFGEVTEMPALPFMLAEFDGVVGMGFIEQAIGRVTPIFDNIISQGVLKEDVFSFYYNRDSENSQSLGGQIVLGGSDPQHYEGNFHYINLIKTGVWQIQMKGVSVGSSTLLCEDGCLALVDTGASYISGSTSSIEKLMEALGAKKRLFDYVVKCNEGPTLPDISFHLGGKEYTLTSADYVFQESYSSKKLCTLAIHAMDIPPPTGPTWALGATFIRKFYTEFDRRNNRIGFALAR
measurement_description: In vitro enzymatic activity assay of renin inhibitors (fluorescence, QXL520/HiLyteFluo488 peptide substrate)
Type: biochemical
cond: recombinant human renin 3 nM, 1 μM substrate, pre-incubated 10 minutes at 37° C., incubation one hour, pH 7.4, 5% DMSO; read-out: IC50 of Exemplified Compounds Against Renin
pIC50: −log10 of the molar value.

Example cases with answers are listed next.
- compound: "CC(C)c1c(C(=O)N2CCNCC2)[nH]c(=O)n1-c1ccccc1 [Example 23]"
  system_under_test: "Recombinant human renin (Homo sapiens, UniProt P00797)"
  pIC50: "< 6.00"
- compound: "COc1ccc(NC(=O)NCCn2c(C(=O)N3CCNCC3)c(-c3ccccc3)n(-c3ccccc3C)c2=O)cc1 [Example 228]"
  system_under_test: "Recombinant human renin (Homo sapiens, UniProt P00797)"
  pIC50: "6.00 to 6.30"

For this compound ( Cc1ccccc1-n1c(-c2ccccc2)c(C(=O)N2CCNCC2)n(CCCNS(=O)(=O)c2ccccc2C)c1=O [Example 220] ), measured pIC50 is > 7.00

For this compound ( COC(=O)C(c1ccccc1)n1c(C(=O)N2CCNCC2)c(-c2ccccc2)n(C2CCCCC2)c1=O (centres unmarked) [Example 68] ), measured pIC50 is < 6.00

For this compound ( CN1CCOc2ccc(-n3c(-c4ccccc4)c(C(=O)N4CCNC[C@H]4Cc4ccccc4)[nH]c3=O)cc21 [Example 135] ), measured pIC50 is > 7.00

For this compound ( O=C(c1[nH]c(=O)n(-c2ccccc2NS(=O)(=O)C2CC2)c1-c1ccccc1)N1CCNC[C@H]1Cc1ccccc1 [Example 123] ), measured pIC50 is 6.30 to 7.00

For this compound ( Cc1cc(Cn2c(C(=O)N3CCNCC3)c(-c3ccccc3)n(-c3ccccc3)c2=O)no1 [Example 47] ), measured pIC50 is < 6.00

For this compound ( COc1ccccc1NC(=O)NCCCn1c(C(=O)N2CCNCC2)c(-c2ccccc2)n(-c2ccccc2C)c1=O [Example 225] ), measured pIC50 is 6.30 to 7.00

For this compound ( COCCCOc1cccc(-n2c(-c3ccccc3)c(C(=O)N3CCNCC3)n(Cc3cccc(Oc4ccccc4)c3)c2=O)c1 [Example 75] ), measured pIC50 is > 7.00
